Field: %Inh. Provide a value for each of the compounds that follow.
- System: CDK4-cyclinD1
- cond: concentration: 1 μM, replicates: in singlicate; n = 1
Answers are plain numbers, in %.

// below: answered compounds
>  <molecule>
Nc1ncnc2c1nc(-c1ccccc1)n2-c1ccccc1

>  <system under test>
CDK4-cyclinD1

>  <quantity name>
%Inh

>  <value units>
%

>  <observed result>
21

$$$$
>  <molecule>
C[C@@H]1CC[C@@H](C(=O)Nc2ccccc2)CN1c1cc(-c2ccc3c(N)n[nH]c3c2)nc(N)n1

>  <system under test>
CDK4-cyclinD1

>  <quantity name>
%Inh

>  <value units>
%

>  <observed result>
0

$$$$
>  <molecule>
O=C(Nc1n[nH]c2cc(-c3ccoc3)ccc12)C1CC1

>  <system under test>
CDK4-cyclinD1

>  <quantity name>
%Inh

>  <value units>
%

>  <observed result>
14

$$$$
>  <molecule>
O=C(Nc1n[nH]c2nc(-c3ccc(O)cc3)ccc12)C1CC1

>  <system under test>
CDK4-cyclinD1;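 note: KINOMEscan kinase panel screen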

>  <quantity name>
%Inh

>  <value units>
%

>  <observed result>
83

$$$$

// for each compound in input: emit %Inh
1. CCCCc1nn2ncccc2c1-c1ccnc(Nc2ccc(N3CCN(C)CC3)cc2)n1
2. Oc1cc(Nc2ccnc3cc(I)ccc23)ccc1F
3. CN(c1ccc(NC(=O)Nc2cc(C(F)(F)F)ccc2F)cc1)c1ccnc(Nc2ccc(S(N)(=O)=O)cc2)n1
4. Cn1cc(-c2[nH]c3cc(NC(=O)[C@H](N)C4CCCCC4)cc4c3c2C=NNC4=O)cn1
5. c1ccc(-c2n[nH]cc2Nc2ccnc3ccccc23)nc1

1: 63; 2: 11; 3: 14; 4: 0; 5: 58
